TGI for assorted compounds
system: ACHN renal; assay: NCI tumour cell line growth inhibition, 48 h

compound=Cc1ncc(CO)c(CN)c1O measured_endpoint=TGI measurement="> 100 µM"
compound="C#CCCOC1(OC)N=NC(C)(C)O1 (stereo not given)" measured_endpoint=TGI measurement="> 100 µM"
compound=C#CCOc1ccc2ncnc(Nc3ccc(NC(=O)CCl)cc3)c2c1 measured_endpoint=TGI measurement="23.3 µM"

Below: the item to evaluate.
Q: What value of TGI has been reported for the following compound? NC12CC3CC(C1)CC(Cl)(C3)C2
Ans: > 100 µM

----------
system: OVCAR-4 ovarian; experiment: NCI tumour cell line growth inhibition, 48 h
measured endpoint: TGI

molecule=CCCCCC(=O)OCC(=O)O[C@@H]1C[C@]2(C(C)C)O[C@@]1(C)[C@@H]1CC[C@@H](C)[C@H]1[C@@H]2OC(=O)/C=C/c1ccccc1 measurement="> 71.5 µM"
molecule="CC(C)=CCC/C(C)=C/CC/C(=C/COP(=O)(OCc1ccc([N+](=O)[O-])o1)N(C)CCCCCl)CC=C(C)C (stereo not given)" measurement="48.3 µM"
molecule="COc1cc2c(cc1OC)C1C(O)C(OC)C=C3CC[N+](C)(C2)C31 (stereo not given)" measurement="> 100 µM"
molecule=Cc1[nH]n(-c2nc3c(c(=O)[nH]2)CCC3)c(=O)c1CCO measurement="> 100 µM"
molecule=COc1ccc(/C(Cl)=C(\C=O)c2ccc(OC)c(OC)c2)cc1OC measurement="> 100 µM"
molecule="Cc1ccc2[nH]c(C(=O)NN3C(=O)CSC34CCCC(C)C4)c(-c3ccccc3)c2c1 (stereo not given)" measurement="40.2 µM"
molecule="CC1=Nc2c([nH]c(=S)[nH]c2=O)NC(c2ccc(Cl)c(Cl)c2)C1 (stereo not given)" measurement="57.9 µM"
molecule=COc1ccc(NC(=O)Nc2ccc(Nc3nc(C)cc(Nc4ccc(C)cc4)n3)cc2)cc1 measurement="2.55 µM"
molecule=O=C1/C(=C/c2ccc(Cl)cc2)NC(=S)N1CN1CCOCC1 measurement="> 100 µM"
molecule=C/C(=N\NC(=O)/C(C#N)=C\c1ccc(N(CCC#N)CCC#N)cc1)c1ccccc1 measurement="> 10 µM"

Below: the item to evaluate.
Q: What value of TGI has been reported for the following molecule? CC1(C)C=C(/C=N/Nc2ccc(Br)cc2)C(C#N)=C(O)C1(C#N)C#N
Ans: > 100 µM
